Measured values drawn from patent US11590116B2 for this set.

target: recombinant human ALK5 (TGF-βR1) protein (Homo sapiens, UniProt P36897); construct: purchased Life Technologies PR9075A; experiment: Biochemical ALK5 (TGF-βR1) assay to measure pKi (LANCE Ultra ULight kinase assay); details: apparent pKi from pIC50 by Cheng-Prusoff, read-out: ALK5 pKi (converted)
Sequence (P36897 34-503): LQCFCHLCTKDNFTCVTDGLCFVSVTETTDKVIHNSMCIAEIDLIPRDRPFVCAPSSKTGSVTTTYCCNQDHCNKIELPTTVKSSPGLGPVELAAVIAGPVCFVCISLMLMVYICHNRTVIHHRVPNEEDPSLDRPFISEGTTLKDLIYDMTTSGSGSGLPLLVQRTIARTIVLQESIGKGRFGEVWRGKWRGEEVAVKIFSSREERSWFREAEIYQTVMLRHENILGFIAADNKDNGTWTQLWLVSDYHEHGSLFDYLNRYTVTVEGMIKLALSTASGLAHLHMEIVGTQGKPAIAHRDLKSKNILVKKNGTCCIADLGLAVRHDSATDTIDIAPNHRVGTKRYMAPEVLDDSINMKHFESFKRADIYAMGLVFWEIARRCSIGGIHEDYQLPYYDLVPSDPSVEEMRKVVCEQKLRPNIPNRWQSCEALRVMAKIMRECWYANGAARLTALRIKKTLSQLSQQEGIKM
reported_endpoint: Ki

molecule=Cc1cccc(-c2[nH]cnc2-c2ccc3ncc(-c4nc(C(=O)OCC5CNC5)cs4)cc3c2)n1 result="< 0.0316 nM"
molecule=Cc1cccc(-c2n[nH]cc2-c2ccc3ncc(C4=CCCC4)cc3n2)n1 result="< 0.0316 nM"
molecule="Cc1cccc(-c2n[nH]cc2-c2ccc3ncc(NCC4CCCCN4)cc3n2)n1 (centres unmarked)" result="0.0398 to 0.316 nM"
molecule=Cc1cccc(-c2n[nH]cc2-c2ccc3ncc(-c4ccccc4)cc3n2)n1 result="< 0.0316 nM"
molecule=Cc1cccc(-c2n[nH]cc2-c2ccc3ncc(-c4c[nH]cn4)cc3n2)n1 result="0.0398 to 0.316 nM"
molecule=Cc1cccc(-c2[nH]cnc2-c2ccc3ncc(-c4ccc(C(=O)OC[C@@H]5CCCCN5)cn4)cc3c2)n1 result="0.0398 to 0.316 nM"
molecule=Cc1nc(-c2n[nH]cc2-c2ccc3ncc(-c4[nH]nc5c4CNCC5)cc3n2)ccc1F result="0.0398 to 0.316 nM"
molecule=CNCCn1cc(-c2cnc3ccc(-c4c(-c5cccc(C)n5)nn5c4CNCC5)nc3c2)cn1 result="0.0398 to 0.316 nM"

* * *

molecular target: recombinant human ALK5 (TGF-βR1) protein (Homo sapiens); construct: purchased Life Technologies PR9075A; test: Biochemical ALK5 (TGF-βR1) assay to measure pKi (LANCE Ultra ULight kinase assay); conditions: apparent pKi from pIC50 by Cheng-Prusoff, read-out: ALK5 pKi (converted)
reported_endpoint: Ki

compound=Cc1cccc(-c2n[nH]cc2-c2ccc3ncc(-c4cn(Cc5cccnc5)nn4)cc3n2)n1 result="39.8 to 316 pM"
compound=CNCCn1cc(-c2cnc3ccc(-c4c(-c5cccc(C)n5)nn5c4NCC5)cc3c2)cn1 result="39.8 to 316 pM"
compound="Cc1cccc(-c2[nH]cnc2-c2ccc3ncc(C4=CCC5(CCNC(=O)C5)CC4)cc3c2)n1 (stereo not shown)" result="< 31.6 pM"
compound="Cc1cccc(-c2nc3ccccn3c2-c2ccc3ncc(N4CCC(N(C)C)C4)cc3n2)n1 (racemic)" result="39.8 to 316 pM"
compound=CCOC(=O)CCN(C)c1cnc2ccc(-c3c[nH]nc3-c3cccc(C)n3)nc2c1 result="3980 to 31600 pM"
compound=Cc1cccc(-c2n[nH]cc2-c2ccc3ncc(N4CCC(N5CCOCC5)CC4)cc3n2)n1 result="< 31.6 pM"
compound="Cc1cccc(-c2n[nH]cc2-c2ccc3ncc(N4CCNC(C(N)=O)C4)cc3n2)n1 (racemic)" result="39.8 to 316 pM"
compound=Cc1cccc(-c2n[nH]cc2-c2ccc3ncc(N4CCn5nc(C6=CCNC6)nc5C4)cc3n2)n1 result="39.8 to 316 pM"
compound=Cc1cccc(-c2[nH]cnc2-c2ccc3ncc(Nc4ccc(N5CCN(C)CC5)cn4)cc3c2)n1 result="< 31.6 pM"
compound="COC(=O)CC1CN(CCNc2cnc3ccc(-c4nc[nH]c4-c4cccc(C)n4)cc3c2)CCN1 (stereo not shown)" result="39.8 to 316 pM"
compound=Cc1cccc(-c2[nH]cnc2-c2ccc3ncc(C4=CCN(C)C4)cc3c2)n1 result="< 31.6 pM"
compound=COC(=O)[C@@H]1CCCN(CCNc2cnc3ccc(-c4nc[nH]c4-c4cccc(C)n4)cc3c2)C1 result="39.8 to 316 pM"
compound="Cc1cccc(-c2[nH]cnc2-c2ccc3ncc(NCCN4CC5CNC5C4)cc3c2)n1 (stereo not shown)" result="39.8 to 316 pM"
compound=Cc1cccc(-c2nc3ccccn3c2-c2ccc3ncc(N4CCCNCC4)cc3n2)n1 result="39.8 to 316 pM"
compound=Cc1cccc(-c2n[nH]cc2-c2ccc3ncc(N4CCCN(C)CC4)cc3n2)n1 result="39.8 to 316 pM"
compound=Cc1nc(-c2n[nH]cc2-c2ccc3ncc(-c4nnn5c4NCCC5)cc3n2)ccc1F result="39.8 to 316 pM"
compound=Cc1nc(-c2n[nH]cc2-c2ccc3ncc(N4CC[C@H](N(C)C)C4)cc3n2)ccc1F result="< 31.6 pM"
compound=Cc1cccc(-c2[nH]cnc2-c2ccc3nccc(C(=O)OC[C@H]4CC[C@@H](N)CC4)c3c2)n1 result="398 to 3160 pM"
compound=Cc1cccc(-c2[nH]cnc2-c2ccc3ncc(-c4nc(C5=CCNCC5)cs4)cc3c2)n1 result="39.8 to 316 pM"
